Tested on: AKT1/2/3 (Ser473) phosphorylation (mTORC2) in MDA-MB-468 cells
Assay: Cell based AlphaLISA assay, mTOR kinase cellular assay: inhibition of p-Akt (S473) in MDA-MB-468 cells
Conditions: Homo sapiens, read-out: pIC50 for Inhibition of mTORC1 and mTORC2 Substarte Phosphorylation p-AKT1/2/3-(S473) (converted)
READOUT: IC50

Study these solved cases before continuing.
COMPOUND	TEST_TARGET	IC50
CO[C@H]1C[C@@H]2CC[C@@H](C)[C@@](O)(O2)C(=O)C(=O)N2CCCC[C@H]2C(=O)O[C@H]([C@H](C)C[C@@H]2CC[C@@H](OC(=O)NCc3cnc(N4CCN(C(=O)CCOCCN5CCN(c6ncc(C(=O)NCCOCCC(=O)N7CCc8cc(Cn9nc(-c%10ccc%11oc(N)nc%11c%10)c%10c(N)ncnc%109)ccc8C7)cn6)CC5)CC4)nc3)[C@H](OC)C2)C[C@@H](OC)[C@H](C)/C=C(\C)[C@@H](O)[C@@H](OC)C(=O)[C@H](C)C[C@H](C)/C=C/C=C/C=C/1C	AKT1/2/3 (Ser473) phosphorylation (mTORC2) in MDA-MB-468 cells	31.6 to 1000 nM
CO[C@H]1C[C@@H]2CC[C@@H](C)[C@@](O)(O2)C(=O)C(=O)N2CCCC[C@H]2C(=O)O[C@H]([C@H](C)C[C@@H]2CC[C@@H](OC(=O)NCc3cnc(N4CCN(c5ncc(C(=O)NCCOCCOCCOCCOCCC(=O)N6CCc7cc(Cn8nc(-c9ccc%10oc(N)nc%10c9)c9c(N)ncnc98)ccc7C6)cn5)CC4CO)nc3)[C@H](OC)C2)CC(=O)[C@H](C)/C=C(\C)[C@@H](O)[C@@H](OC)C(=O)[C@H](C)C[C@H](C)/C=C/C=C/C=C/1C (some centres unmarked)	AKT1/2/3 (Ser473) phosphorylation (mTORC2) in MDA-MB-468 cells	3.16 to 31.6 nM
CO[C@H]1C[C@@H]2CC[C@@H](C)[C@@](O)(O2)C(=O)C(=O)N2CCCC[C@H]2C(=O)O[C@H]([C@H](C)C[C@@H]2CC[C@@H](OC(=O)NCc3cnc(N4CCN(c5ncc(C(=O)NCCOCCC(=O)N6CCN(c7ncc(C(=O)NCCCCn8nc(-c9ccc%10oc(N)nc%10c9)c9c(N)ncnc98)cn7)CC6)cn5)CC4)nc3)[C@H](OC)C2)CC(=O)[C@H](C)/C=C(\C)[C@@H](O)[C@@H](OC)C(=O)[C@H](C)C[C@H](C)/C=C/C=C/C=C/1C	AKT1/2/3 (Ser473) phosphorylation (mTORC2) in MDA-MB-468 cells	3.16 to 31.6 nM
CO[C@H]1C[C@@H]2CC[C@@H](C)[C@@](O)(O2)C(=O)C(=O)N2CCCC[C@H]2C(=O)O[C@H]([C@H](C)C[C@@H]2CC[C@@H](OC(=O)NCc3cnc(N4CCN(C(=O)CCOCCN5CCN(c6ncc(C(=O)NCCS(=O)(=O)c7ccc(C(=O)N8CCOc9ccc(-c%10ccc(N)nc%10)cc9C8)c(C)c7)cn6)CC5)CC4)nc3)[C@H](OC)C2)CC(=O)[C@H](C)/C=C(\C)[C@@H](O)[C@@H](OC)C(=O)[C@H](C)C[C@H](C)/C=C/C=C/C=C/1C	AKT1/2/3 (Ser473) phosphorylation (mTORC2) in MDA-MB-468 cells	> 1000 nM

Next compound, IC50 to be filled in.
Given the entry CO[C@H]1C[C@@H]2CC[C@@H](C)[C@@](O)(O2)C(=O)C(=O)N2CCCC[C@H]2C(=O)O[C@H]([C@H](C)C[C@@H]2CC[C@@H](OC(=O)NCc3cnc(N4CCN(c5ncc(C(=O)NCCOCCOCCOCCOCCC(=O)N6CCc7cc(Cn8nc(-c9ccc%10oc(N)nc%10c9)c9c(N)ncnc98)ccc7C6)cn5)CC4)nc3)[C@H](OC)C2)C[C@@H](OC)[C@H](C)/C=C(\C)[C@@H](O)[C@@H](OC)C(=O)[C@H](C)C[C@H](C)/C=C/C=C/C=C/1C , report its measured IC50.
> 1000 nM
